Target: CDK2 protein (purchased from Sino Biological Inc.) (UniProt P24941 1-298)
Assay: SPR; CD147ICD immobilised on a CM5 chip; CDK2 injected at 30 µL/min; BSA signal subtracted
Conditions: both partners purified
metric: pKd
pKd here: minus log base 10 of the concentration, concentration in moles per litre.

Name the recorded pKd of the item EKRRKPEDVLDDDDAGSAPLKSSGQHQNDKGKNVRQRNSS (domain or fragment, CD147 (basigin), human, residues 230-269, intracellular portion; also called CD147’s intracellular domain; CD147’s intracellular segment; source: E. coli OrigamiB (DE3), purified (expressed and purified in the same way as for CD147)) [intracellular portion of CD147 (ICD, 230-269)] in your answer. 4.78
